Reference for the values: patent US20250388666A1

Biological target: T1, CEACAM1 (Sino Biological) (human, UniProt P13688 35-428, limits assumed)
T1 construct: may be the same as CEACAM1-HIS; also called hCEACAM1; biotinylated soluble CEACAM1
T1 sequence: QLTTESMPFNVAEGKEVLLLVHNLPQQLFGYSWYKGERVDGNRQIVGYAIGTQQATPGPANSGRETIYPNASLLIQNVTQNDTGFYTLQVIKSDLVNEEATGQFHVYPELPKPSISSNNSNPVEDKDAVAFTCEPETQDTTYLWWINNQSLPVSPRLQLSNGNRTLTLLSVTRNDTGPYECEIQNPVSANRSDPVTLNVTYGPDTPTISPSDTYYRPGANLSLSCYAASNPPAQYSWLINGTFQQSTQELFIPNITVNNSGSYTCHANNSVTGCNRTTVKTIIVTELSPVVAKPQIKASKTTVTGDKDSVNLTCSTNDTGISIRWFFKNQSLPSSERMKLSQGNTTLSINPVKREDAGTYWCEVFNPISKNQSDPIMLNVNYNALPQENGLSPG
Assay: SPR single-cycle
Recorded measurements of fold better than Parent (KD), one per entry
Dear colleague, please return just the value in fold, with no unit written.

He1/L1 (antibody, IgG4, V domains shown, IgG4 S241P, kappa) VH: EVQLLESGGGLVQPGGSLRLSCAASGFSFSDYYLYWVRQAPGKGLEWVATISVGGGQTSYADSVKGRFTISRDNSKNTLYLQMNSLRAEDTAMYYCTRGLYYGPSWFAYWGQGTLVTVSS VL: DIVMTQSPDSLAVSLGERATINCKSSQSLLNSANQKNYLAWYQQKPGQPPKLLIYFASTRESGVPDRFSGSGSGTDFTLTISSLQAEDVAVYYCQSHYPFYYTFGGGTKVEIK: 0.97

Determine from records and report fold better than Parent (KD) for He17/L2 (antibody, IgG4, V domains shown, IgG4 S241P, kappa) VH: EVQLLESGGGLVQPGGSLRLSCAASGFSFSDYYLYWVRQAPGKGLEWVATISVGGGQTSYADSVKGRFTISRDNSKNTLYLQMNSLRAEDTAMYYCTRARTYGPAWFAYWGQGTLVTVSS VL: DIVMTQSPDSLAVSLGERATINCKSSQSLLNSANQKNYLAWYQQKPGQPPKLLIYFASTRESGVPDRFSGSGSGTDFTLTISSLQAEDVAVYYCQSHYPFPYTFGGGTKVEIK 1.95
